First order rate constant values for the compounds below.
Test: Chemical stability pH dependent at 25° C.
Type: physicochemical
Conditions: Buffer pH 5.0, 25° C.
reported metric: First order rate constant

> print(dat)
                                   compound                       val
1  CCCCCc1cc(OC(=O)C(N)C(C)C)c2c(c1)OC(C)(C)C1CCC(C)=CC21 (stereo not drawn) [THC-Valinate (6), Δ^9-THC-valinate]   4.06 ± 0.01 ×10^−3 h^−1
2  CCCCCc1cc(OC(=O)CCCc2ccc(NC(=O)CCC(=O)O)cc2)c2c(c1)OC(C)(C)[C@@H]1CCC(C)=C[C@@H]21               0.00368 h⁻¹
3  CCCCCc1cc(OC(=O)CNC)c2c(c1)OC(C)(C)[C@@H]1CCC(C)=C[C@@H]21 [THC-Sarcosinate (7), Δ^9-THC-sarcosinate]  38.35 ± 4.32 ×10^−3 h^−1
